Measured TGI, listed per entry for reference.
- Tested on: OVCAR-8 ovarian
- Assay text: NCI tumour cell line growth inhibition, 48 h

Examples with answers:
molecule="O=C1NC(c2ccc(O)cc2)C2CCC1C2 (stereo unspecified)" metric_name=TGI test_result="> 100 µM"
molecule=COc1ccc(/C(=C/n2ccnc2)C(=O)c2ccc(OC)c(OC)c2)cc1 metric_name=TGI test_result="> 100 µM"
molecule=C=CC(=O)N[C@H]1C=C(C)c2c(-c3cnc4ccccc4c3)c3c(N)ncnc3n2C1 metric_name=TGI test_result="> 100 µM"
molecule="O=C1CC(c2ccco2)C2(C(=O)NC(=O)NC2=O)C(c2ccco2)C1 (stereo unspecified)" metric_name=TGI test_result="> 75 µM"

The measured TGI that `N#CCCN(c1ccc(C=Nc2cccc([N+](=O)[O-])c2)cc1)S(=O)(=O)c1ccccc1` showed for OVCAR-8 ovarian is > 100 µM

For the molecule C#CCNC(=O)NC(CCCNC(=O)OCc1ccccc1)C(=O)OCc1ccccc1 (stereo unspecified) , the measured TGI on OVCAR-8 ovarian was > 100 µM
